assay: S. cerevisiae RM11-1a growth modifiers, primary screen, strain RM11-1a, OD600, basal, 24 h (AID 1177); conditions: OD600, 24 h, higher = more signal, called active from +8 up or from −8 down;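 also: cultures grown under basal conditions with no added stressor; test concentration not given here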
Readout: z-score
Output: the number by itself.

Take a look at these entries with their results.
Compound	Readout	Observed Measurement
CC1CC/C=C\[C@H]2OC34C=CCN(C(C)C)C(=O)[C@H]3N(CCCCCO)C(=O)[C@@H]4C2C(=O)O1 (some centres undefined)	z-score	-0.171
O=C(O)[C@H](Cc1ccccc1)n1cc(-c2ccccn2)nn1	z-score	0.911
NC(=O)NCC#Cc1ccc2c(c1)[C@]1(C(=O)N2)[C@H](C(=O)Nc2nc3ccccc3s2)[C@H]2C(=O)O[C@H](c3ccccc3)[C@H](c3ccccc3)N2[C@@H]1c1ccc(O)cc1	z-score	5.05

Here is the next item to consider.
Recorded z-score of `CN(C)CCCNC(=O)[C@@H]1c2ccccc2C(=O)N(Cc2ccc(OC(F)(F)F)cc2)[C@H]1c1ccc(CO)cc1` , please. 1
